Biological target: T1, recombinant human galectin-10, TEV-cleaved (human, UniProt Q05315 1-142)
T1 sequence: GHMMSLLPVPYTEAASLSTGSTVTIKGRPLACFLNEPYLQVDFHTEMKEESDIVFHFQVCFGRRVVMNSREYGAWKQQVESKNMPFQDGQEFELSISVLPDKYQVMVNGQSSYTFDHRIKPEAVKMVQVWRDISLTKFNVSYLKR
Assay: cell-based or functional assay

| binder | 50% crystal dissolution (min), 50 uM |
| --- | --- |
| 7B07 mouse IgG1 (antibody, V domains shown, VH and VL cloned in frame with mouse IgG1 constant domains; also called 7B07 mIgG1) VH: QVQLVESGGGLVQPGGSLRLSCAASGFTFRSYDMSWVRQAPGKGPEWVSAIKNGGGITYYADSVKGRFTISRDNAKNTLYLQMNSLKPEDTAVYYCATTHGIGTLGFGSWGQGTQVTVSS VL: SYELTQSASVSVALTQTAKITCDGNNIGSKSAQWYQQKPGQAPALVIYADEYRPEGIPERFSGSNSGNTATLIISGAQAEDEADYYCQVWDGSAAVFGRGTHLTVL | 31.8 min |
| 11F02 Fab (Fab, V domains shown, Fab with human CH1 (including part of the hinge region) and human lambda constant domain; also called 11F02 hFab) VH: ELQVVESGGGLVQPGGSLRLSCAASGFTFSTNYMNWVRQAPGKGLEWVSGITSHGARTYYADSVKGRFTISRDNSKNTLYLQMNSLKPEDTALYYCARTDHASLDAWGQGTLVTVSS VL: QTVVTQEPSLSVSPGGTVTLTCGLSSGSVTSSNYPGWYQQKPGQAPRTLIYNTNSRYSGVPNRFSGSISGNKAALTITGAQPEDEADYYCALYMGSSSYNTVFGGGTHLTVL | 77.9 min |
| 7B07 Fab (Fab, V domains shown, Fab with human CH1 (including part of the hinge region) and human lambda constant domain; also called 7B7; 7B07 hFab) VH: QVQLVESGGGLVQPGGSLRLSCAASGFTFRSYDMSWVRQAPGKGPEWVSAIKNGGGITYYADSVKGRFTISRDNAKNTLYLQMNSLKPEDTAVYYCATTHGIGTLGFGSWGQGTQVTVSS VL: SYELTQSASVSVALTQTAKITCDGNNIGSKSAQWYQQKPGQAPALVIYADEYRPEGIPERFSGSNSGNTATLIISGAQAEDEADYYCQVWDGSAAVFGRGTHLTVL | 15.1 min |
| 10B02 mouse IgG1 (antibody, V domains shown, VH and VL cloned in frame with mouse IgG1 constant domains; also called 10B02 mIgG1) VH: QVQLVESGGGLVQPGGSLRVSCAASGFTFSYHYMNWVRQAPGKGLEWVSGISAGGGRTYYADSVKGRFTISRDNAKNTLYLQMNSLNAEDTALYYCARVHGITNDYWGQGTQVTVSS VL: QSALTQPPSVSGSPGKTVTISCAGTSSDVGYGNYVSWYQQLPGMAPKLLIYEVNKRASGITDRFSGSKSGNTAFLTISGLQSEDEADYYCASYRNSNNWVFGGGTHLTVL | 73.7 min |
| 10A06 mouse IgG1 (antibody, V domains shown, VH and VL cloned in frame with mouse IgG1 constant domains; also called 10A06 mIgG1) VH: QVQLVESGGGLVQPGGSLRLSCAASGFTFGNYDMSWVRQAPGKGPEWVSDINSGGGSTYYADSVKGRFTISRDNAKNSLLLQMNSLKPEDTAVYYCATGYTGYYYWGQGTQVTVSS VL: QTVVTQEPSLSVSPGGTVTLTCGLSSGSVTSSNYPAWYQQTPGQAPRALIYSINSRHSGVPDRFSGSISGNKAALTITGAQAEDEADYYCTLYMGTGSNNVVFGGGTHLTVL | > 120 min |

Measured values drawn from patent US20190367619A1 for this set.
